Biological target: T1, Fluorescently labeled recombinant Nogo-A-Δ20 (rat aa544-725) (rat), Q9JK11
T1 chain: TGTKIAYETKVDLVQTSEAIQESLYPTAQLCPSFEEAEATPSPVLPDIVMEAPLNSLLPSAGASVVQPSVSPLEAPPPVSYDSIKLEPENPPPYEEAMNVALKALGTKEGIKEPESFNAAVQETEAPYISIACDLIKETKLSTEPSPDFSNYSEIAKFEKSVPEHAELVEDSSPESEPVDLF
Test: MST; Monolith NT.115; fluorescently labeled Nogo-A-Δ20 constant (~40 nM), peptides serially diluted; PBS with 0.025% Tween-20, pH 7.4; LED 60%, IR laser 20%; non-linear regression with Hill coefficient 1.0
Details: remark: other sources report otherwise
Measured pKd values are reported for all entries that follow.
Scale: pKd equals -log10([C]), with [C] in mol/L.

- binder: "NCLNQLEACSTVLPLYAKHYVL (here or on the partner: fluorescent label (Amine Reactive Protein labeling kit RED, L001, Nano Temper technologies)) [S1PR2 extracellular loop 2 peptide]"
  pKd: 6.55

Let us examine a further case.
query: Please give the measured pKd for this binder: SILLLDSTCPVRACPVLYK (here or on the partner: fluorescent label (Amine Reactive Protein labeling kit RED, L001, Nano Temper technologies)) [S1PR2 extracellular loop 3 peptide]
result: 6.46
